- Tested target: Acetylcholinesterase (Homo sapiens)
- Sequence (P22303 whole entry): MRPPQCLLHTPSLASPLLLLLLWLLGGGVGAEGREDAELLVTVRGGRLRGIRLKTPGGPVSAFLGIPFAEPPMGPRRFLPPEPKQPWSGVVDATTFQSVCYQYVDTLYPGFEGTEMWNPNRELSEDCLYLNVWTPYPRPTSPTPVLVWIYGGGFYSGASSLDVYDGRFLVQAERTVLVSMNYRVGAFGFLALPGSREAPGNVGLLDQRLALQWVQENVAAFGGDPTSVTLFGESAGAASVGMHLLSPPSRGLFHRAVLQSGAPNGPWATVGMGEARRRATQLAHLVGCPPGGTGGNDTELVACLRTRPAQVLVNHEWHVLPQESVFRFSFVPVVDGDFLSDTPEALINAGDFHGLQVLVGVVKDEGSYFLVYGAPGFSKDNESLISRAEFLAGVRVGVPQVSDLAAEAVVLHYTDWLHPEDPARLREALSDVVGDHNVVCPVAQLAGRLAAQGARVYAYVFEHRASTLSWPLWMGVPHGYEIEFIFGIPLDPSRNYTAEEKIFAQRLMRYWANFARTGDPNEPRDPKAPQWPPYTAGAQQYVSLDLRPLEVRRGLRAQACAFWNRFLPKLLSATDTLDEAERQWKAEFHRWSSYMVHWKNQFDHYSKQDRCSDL
Readout: IC50 (µM)
Reply with just the number (in µM).

Reading of IC50 for COc1cc2ccc(=O)oc2cc1O [SCOPOLETIN] with Acetylcholinesterase (Homo sapiens): 169
